- assay system: T1, human BTLA Fc fusion (dimeric) (human, UniProt Q7Z6A9 31-157)
- T1 construct: not shown: Fc part not described
- T1 sequence (looked up): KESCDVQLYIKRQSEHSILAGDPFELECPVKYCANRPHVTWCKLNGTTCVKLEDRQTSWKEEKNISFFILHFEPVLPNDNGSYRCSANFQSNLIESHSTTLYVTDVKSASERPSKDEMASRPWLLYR
- experiment: binding to dimeric Fc fusions of CD28 family members

binder	binding result
7F12 (antibody, V domains shown, Armenian hamster monoclonal tested as IgG; also called hamster anti-ICOS 7F12) VH: EVQLVESGGGLVKPGGSLTLSCAASGFTFSDYWMDWVRQGPGKGLEWVGNIDEDGSTTYYAPFVKGRFTISRDNAKKTLYLQMNSVKSEDTATYYCTRWGRYAFDSWGQGTLVTVSS VL: DIVMTQSPSSLAVSPGDKVTINCKSSQSLLSGNYNYLAWYQQKTGQAPKLLIFYASTRHTGVPDRFMGSGSGTDFSLTINSFQTEDLGDYYCQHHYSTPPTFGPGTKLEIK	no binding
37A10 (antibody, V domains shown, Armenian hamster monoclonal tested as IgG; also called hamster anti-ICOS 37A10) VH: EVQLVESGGGLVKPGGSLKLSCAASGFTFSDYWMDWVRQAPGKGLEWVGNIDEDGSITEYSPFVKGRFTISRDNVKNTLYLQMNSVKSEDTATYYCTRWGRFGFDSWGQGTLVTVSS VL: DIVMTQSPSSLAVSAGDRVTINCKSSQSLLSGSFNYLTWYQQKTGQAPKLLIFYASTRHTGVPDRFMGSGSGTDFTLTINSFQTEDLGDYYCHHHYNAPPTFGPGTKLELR	no binding
